system: NK-YS (IL-2 2.5 ng/mL); experiment: relative IC50 (inflection point of fitted viability curve, relative to fitted max inhibition); higher = less sensitive; conditions: 72 h
Each entry falls in a class defined on relative IC50; the bands are A: < 0.2 µM; B: ≥ 0.2 µM and < 0.9 µM; C: ≥ 0.9 µM

compound="COCC[n+]1c2c(n(Cc3cnccn3)c1C)C(=O)c1ccccc1C2=O [YM155]" assigned_label=A
compound="CCCCC(=O)OCC(=O)[C@]1(O)Cc2c(O)c3c(c(O)c2[C@@H](O[C@H]2C[C@H](NC(=O)C(F)(F)F)[C@H](O)[C@H](C)O2)C1)C(=O)c1c(OC)cccc1C3=O [Valrubicin]" assigned_label=A
compound="CS(=O)(=O)OCCCCOS(C)(=O)=O [Busulfan]" assigned_label=C
compound=CCn1cc(-c2ccnc3[nH]c(-c4cccc(CN(C)C)c4)cc23)c(-c2ccc(NC(=O)N(C)C)cc2)n1 assigned_label=A
compound="CNC(=O)c1cccc(-c2ccc3c(N4CCOC[C@@H]4C)nc(N4CCOC[C@@H]4C)nc3n2)c1 [AZD2014]" assigned_label=B
compound="Nc1ccccc1NC(=O)c1ccc(CNC(=O)OCc2cccnc2)cc1 [Entinostat]" assigned_label=C

Now look at this entry.
Q: Which band does FC(F)c1nc2ccccc2n1-c1nc(N2CCOCC2)nc(N2CCOCC2)n1 [ZSTK474] fall in?
Result: B
